test-description: soluble on expression in E. coli; label from the status in PepcDB or PDB records
parameter-measured: soluble on expression in E. coli

>>> data_value("MSLESRFCDICGKPAKTYQFGSLLCEDPECLKKAQKLRGGPAGHKLRVISVGSTNPVKVSAVEKAIEKTVGTMLVSSVDTKSGVSDQPQGFEETFKGAYNRAKGAFEKVNCVYGIGIEAGIVEIGEKKLDIHICVVYNGLDYSVGTSQAFQIPKDISDMINEGYECSKIAEETYRVKNIGQKNGIIGVLTDNNILREQLCIDSVVMAMIPKYRRNSQIREGHHHHHH")
"soluble"
>>> data_value("MNINEILKKLINKSDLEINEAEELAKAIIRGEVPEILVSAILVALRMKGESKNEIVGFARAMRELAIKIDVPNAIDTAGTGGDGLGTVNVSTASAILLSLVNPVAKHGNRAVSGKSGSADVLEALGYNIIVPPERAKELVNKTNFVFLFAQYYHPAMKNVANVRKTLGIRTIFNILGPLTNPANAKYQLMGVFSKDHLDLLSKSAYELDFNKIILVYGEPGIDEVSPIGNTFMKIVSKRGIEEVKLNVTDFGISPIPIEKLIVNSAEDSAIKIVRAFLGKDEHVAEFIKINTAVALFALDRVGDFREGYEYADHLIEKSLDKLNEIISMNGDVTKLKTIVVKSSG")
"soluble"
